Parameter TGI: see the listing below.
- Tested on: HCC-2998 colon
- assay.summary: NCI tumour cell line growth inhibition, 48 h

Below: 5 molecules and their reported TGI.
C[C@]12C3CC[C@@]4(CO)C[C@]3(CCC1[C@](C)(C(=O)O)CC[C@@H]2O)CC4=O (stereo partly specified) : > 100 µM
O=C1CC(c2ccc(Cl)cc2)C2(C(=O)NC(=O)NC2=O)C(c2ccc(Cl)cc2)C1 (stereo unspecified) : > 75 µM
COc1cc2c([C@@H](OC(=O)c3ccccc3)c3ccc4c(c3)OCO4)nccc2c(OC)c1OC : > 100 µM
Clc1ccc(C=NC23CC4CC(CC(C4)C2)C3)cc1Cl : > 10 µM
COc1cc(NCc2ccccc2O)c2ncccc2c1 : > 100 µM

Task: Under HCC-2998 colon: report TGI of CCc1c(O)c2c(c(O)c1C(C)=O)C(=O)c1c(cc(O)c(C(=O)O)c1C(=O)O)C2=O .
Output: > 100 µM

----------
- Test system: EKVX NSCLC
- assay.summary: NCI tumour cell line growth inhibition, 48 h; in the data active = GI50 below about 0.43 µM; inactive = the rest
Return exactly one item of yes = active, no = inactive

Task: How did this test come out for C/C1=C/C(=O)O[C@@H]2C[C@@H](CC[C@H](C)/C=C\C=C\CC1)O[C@@](OCCc1ccccc1)([C@@H]1CSC(=O)N1)C2 ?
Output: yes

Task: What did the test return for CN1CCN(CCNc2ccc(CO)c3sc4ccccc4c(=O)c23)CC1 ?
Output: no

Task: # lookup: test call for C(=C\c1nccc2c1[nH]c1ccccc12)/c1ccccc1
Output: no

Task: Outcome logged for CC(=O)[C-](C(C)=O)c1ccccc1.CC(=O)[C-](C(C)=O)c1ccccc1.CC[O-].CC[O-].[Ti+4] in this assay:
Output: no

Task: How did this test come out for COc1cc2cc(Oc3ccc(NC(=O)Nc4ccc(Cl)c(C(F)(F)F)c4)cc3)c(C)nc2cc1OC ?
Output: no

Task: Per the records of this test, what outcome belongs to CCOC(=O)N[C@H]1CCc2c(Br)c(OC)c(OC)c(OC)c2-c2ccc(SC)c(=O)cc21 ?
Output: yes

Task: Please share the test call associated with COc1cc(NCc2ccccc2O)c2ncccc2c1 .
Output: no

Task: GET /call?item= COc1ccc(CC(NC(=O)[C@H](C)NC(=O)CN2CCOCC2)C(=O)N[C@@H](Cc2ccccc2)C(=O)[C@@]2(C)CO2)cc1 (some centres undefined) returns the recorded outcome of this test.
Output: no

Task: What outcome does the record of this test show for C/C1=C\C/C=C(\C)[C@H]2CC(CC/C(C)=C/CC1)[C@](C)(C=O)O2 ?
Output: no

----------
- System: MCF7 breast
- assay.summary: NCI tumour cell line growth inhibition, 48 h
Below is a list of entries, each paired with its recorded TGI value.

Examples from the recorded data:
CC(CN1CCN(CC(C)Nc2ccnc3cc(Cl)ccc23)CC1)Nc1ccnc2cc(Cl)ccc12 (stereo unspecified) : > 100 µM
CC(/C=N\NC(=S)N(C)C)=N/NC(=S)N(C)C : > 100 µM
COc1cc(NCC2COc3c(ccc(OC)c3OC)C2=O)c([N+](=O)[O-])cc1OC (stereo unspecified) : > 100 µM

Task: Read the entry CC(=O)N/N=C1/CC[C@@]2(C)C(=CC[C@H]3C4CCC(C(C)CCCC(C)C)[C@@]4(C)CCC32)C1(C)C (stereo partly specified) and write its reported TGI.
Output: > 100 µM

Task: Annotate the molecule CCCCCCCCCCCCCC(=O)C(C)N (stereo unspecified) with its measured TGI.
Output: 5.77 µM

Task: State its TGI for this molecule: CC(C)c1cccc(C(=O)NCCN(C)C)c1[N+](=O)[O-]
Output: > 100 µM

----------
- System: SK-MEL-5 melanoma
- assay.summary: NCI tumour cell line growth inhibition, 48 h
Property: TGI; scope: individual compounds
Express it in µM; write the number only.

Guide cases for TGI, answers given:
NC(=S)N/N=C\c1nccc2c(N)cccc12 : 4.01
COc1cc2c(cc1OCCCCCCCCN1C(=O)c3cccc4cccc(c34)C1=O)N=C[C@@H]1CCCN1C2=O : 25.4

Consider the record given below.
Task: Determine its reported TGI: CN1CCN(c2ccc(NC3=C(Cl)C(=O)c4ncccc4C3=O)cc2C#N)CC1
Output: 3.38

----------
- Tested on: COLO 205 colon
- assay.summary: NCI tumour cell line growth inhibition, 48 h
property.measured: GI50

Task: Determine from records and report GI50 for C=CCC(N[C@H](CO)c1ccccc1)c1cn(S(=O)(=O)c2ccc(C)cc2)c2ccccc12 (stereo partly specified)
Output: 35300 nM

----------
Listing of entries alongside the reported TGI.
- Tested on: CAKI-1 renal
- assay.summary: NCI tumour cell line growth inhibition, 48 h

Example entries begin here.
COc1ccc(CCNC(=O)CCc2ccccc2CO)cc1OC : > 100 µM
O=S(=O)(NC1OCCCC1I)c1ccccc1 (stereo unspecified) : > 100 µM
C/C1=C\C/C=C(\C)[C@H]2CC(CC/C(C)=C/CC1)[C@](C)(C=O)O2 : 99.2 µM
COc1cc(Cl)c2c3c(c(C(=O)c4ccccc4)oc13)CCC2 : > 100 µM
CC(C)(C)[Si](C)(C)OCC1C=CC(n2cnc3c(N)ncnc32)O1 (stereo unspecified) : > 100 µM

Task: Lab note: record TGI of Cn1c2ccccc2c2nc3ccccc3c(Cl)c21 tested on CAKI-1 renal.
Output: > 100 µM

----------
- Test system: CCRF-CEM leukemia
- assay.summary: NCI tumour cell line growth inhibition, 48 h; in the data active means GI50 below about 0.43 µM; inactive means the rest
Outcomes you can answer with include only these: Yes = active, No = inactive

Task: Short answer needed: outcome of this test for COc1cc(/C=C2\CN(S(=O)(=O)c3ccccc3)C/C(=C\c3cc(CN4CCCCC4)c(O)c(OC)c3)C2=O)cc(CN2CCCCC2)c1O ?
Output: No

Task: Given CC(C)(C)OC(=O)CN1CCc2c(sc3ncnc(N/N=C/c4cccc5ccccc45)c23)C1 , state the outcome it received in this test.
Output: No

Task: Any idea what this test logged for CCCCCCCCCCCCCC(=O)C(C)N (stereo not given) ?
Output: No

Task: Test call for this compound, please: CC(=O)/C=C/C1=C(c2cccs2)c2ccccc2CC1
Output: No

Task: Returns: the outcome recorded for Oc1c(I)cc(-c2nc3ccccc3s2)cc1CN(Cc1ccccn1)Cc1ccccn1 in this assay.
Output: Yes

----------
This section presents compounds with their documented TGI values.
- Test system: A549 NSCLC
- assay.summary: NCI tumour cell line growth inhibition, 48 h
// note: answer is a bare numeric in µM

O=C(Nc1cccc(O)c1)c1cccc(NC2=C(Cl)C(=O)N(Cc3ccccc3)C2=O)c1 : 48.3

Task: Please give the documented TGI of C[S+](C)CC(=O)c1ccc2c(c1)Sc1ccccc1O2
Output: 18.1

Task: Return reported TGI. Input compound: Cc1cccc2c1O/C(=C\c1ccc([N+](=O)[O-])o1)C2=O
Output: 7.81

Task: Name the recorded TGI of the item CCN(CC)CCOc1ccc2c(c1)C(=O)c1cc(OCCN(CC)CC)ccc1-2 in your answer.
Output: 32.9

----------
- System: HCT-15 colon
- assay.summary: NCI tumour cell line growth inhibition, 48 h
property.measured: TGI

Some solved cases for reference:
COc1ccc(N2C(=O)[C@@H]3[C@H](C2=O)c2[nH]c4ccccc4c2C2CCC(C(C)(C)C)C[C@@H]23)cc1 (some centres undefined) : > 100 µM
NC(=S)N/N=C\c1nccc2c(N)cccc12 : > 100 µM
COc1cc2c(cc1OCCCCCCCCN1C(=O)c3cccc4cccc(c34)C1=O)N=C[C@@H]1CCCN1C2=O : 32.7 µM
Cc1cc(=O)[nH]c(/N=C(\N)Nc2ccc(Cl)cc2)n1 : > 100 µM
Cc1ccc(NC(=O)C2C(=O)N(c3ccc(C)c(C)c3)C(=O)/C2=N\NC(N)=S)cc1C (centres undefined) : > 100 µM

Task: In one line, give reported TGI of the entry COc1cc(Cl)c2c3c(c(C(=O)c4ccccc4)oc13)CCC2 .
Output: > 100 µM

Task: Using known records, supply TGI for C/C(=N\Nc1nc2ccccc2o1)c1cc(C)ncn1
Output: 35.3 µM

Task: Provide measured TGI value, entry: CNC(=O)OC1C(O[C@H]2C[C@H]3[C@@H]4CC=C5C[C@@H](O)CC[C@]5(C)[C@H]4CC[C@]3(C)[C@H]2[C@H](C)C(=O)CCC(C)C)OCC(O)C1OC1OCC(O)C(O)C1OC(=O)c1ccc(OC)cc1 (some centres undefined)
Output: 4.01 µM

Task: Provide TGI value for the following compound: O=S(=O)(NCCNc1cc(-c2cn(-c3ccccc3)nc2-c2cccc(O)c2)ccn1)c1ccc(Cl)cc1
Output: 6.42 µM

----------
Listed next: entries and their corresponding TGI.
- Tested on: A498 renal
- assay.summary: NCI tumour cell line growth inhibition, 48 h

Check out these entries, answers already filled in.
COC(=S)OC1CC(n2cnc3c(N)ncnc32)OC1CO[Si](C)(C)C(C)(C)C (stereo unspecified) : 56.9 µM
O=S(=O)(O)c1cc(N=Nc2cc(S(=O)(=O)O)c3cccnc3c2O)ccc1/C=C/c1ccc(N=Nc2cc(S(=O)(=O)O)c3cccnc3c2O)cc1S(=O)(=O)O : > 100 µM
O=[N+]([O-])/C=C\c1c[nH]c2ccc(OCc3ccccc3)cc12 : 22.6 µM
C[C@H](CCC(=O)O)[C@H]1CC[C@H]2[C@@H]3[C@H](O)C[C@@H]4C[C@H](O)CC[C@]4(C)[C@H]3CC[C@]12C : > 100 µM
C1=C(c2ccccc2)SC=C(c2ccccc2)S1 : > 100 µM
Cc1cccc2c1O/C(=C\c1ccc([N+](=O)[O-])o1)C2=O : 4.63 µM
COc1cc2ccc1OCc1cccc(n1)COc1ccc(cc1OC)C=Nc1ccc(cc1)-c1ccc(cc1)N=C2 : > 100 µM
COc1cc(C)c(C)c(OC(=O)c2c(C)c(C)c(OC)c(C)c2OC)c1C : 45.9 µM

Task: Hello, please tell me recorded TGI for this one: COC(=O)C1N=CSCC1(C)O (stereo unspecified)
Output: > 100 µM

Task: State, in one line, measured TGI of O=[N+]([O-])[O-].O=[N+]([O-])[O-].[Au].[Au].c1ccc([P-]c2ccccc2)cc1.c1ccc([P-]c2ccccc2)cc1
Output: > 100 µM

Task: For the compound C/C(N=Nc1nc2ccccc2[nH]1)=C1/C=CC=CN1O , give its reported TGI.
Output: > 100 µM

Task: Specify reported TGI for the compound shown: Cc1ccc(CC(Cc2ccc(C)cc2C(=O)O)C(=O)O)cc1 (stereo unspecified)
Output: > 100 µM

Task: Check the records and state TGI for Cc1cc(=O)[nH]c(/N=C(\N)Nc2ccc(Cl)cc2)n1
Output: > 100 µM

Task: Quickly give me recorded TGI for CN(/N=C\c1ccc2ccccc2c1)C1=NCCN1
Output: 28.6 µM

Task: For the compound COc1ccc([C@]23CCN(S(=O)(=O)c4ccc(C)cc4)[C@H]2[C@H](CO)C2(CC3)OCC(C)(C)CO2)cc1OC , give its reported TGI.
Output: > 100 µM

These measurements were taken from PubChem BioAssay (NCI).
